measurement protocol: Phage titer assay of phage binding to hair
Design: species or system human
experimental setup: phage-displayed peptide; six gray hair strands; relative to HP2-TonB-Gray3 = 100
metric name: Phage Titer (%) relative to the activity of HP2-TonB-Gray3
Supply the numeric figure in %, leaving out any unit text.

Completed entries (count: 3):
substance="HB1-(KP)12-IB5A: hair-binding domain, SEQ ID NO: 96 (PSTPPTNVLMLATKGPKPKPKPKPKPKPKPKPKPKPKPKPPATPPELLHGAPRSGS)" assay_result=5
substance="Gray3-[(KP)6GG]2-KF11: hair-binding domain, SEQ ID NO: 83 (PSHDHKNQKETHQRHAAGPKPKPKPKPKPKPGGKPKPKPKPKPKPGGPANTSQLSTGS)" assay_result=1
substance="HB1-(KGGGS)4-HP2: hair-binding domain with flexible linker, SEQ ID NO: 95 (PSTPPTNVLMLATKGPKGGGSKGGGSKGGGSKGGGSPAAQSQLPDKHSGLHERAPQRYGS)" assay_result=10

# input Which Phage Titer (%) relative to the activity of HP2-TonB-Gray3 is reported for this substance? KF11-[(KP)6GG]2-KF11: hair-binding domain, SEQ ID NO: 101 (PSNTSQLSTGPKPKPKPKPKPKPGGKPKPKPKPKPKPGGPANTSQLSTGS)
# output 1

# input Which Phage Titer (%) relative to the activity of HP2-TonB-Gray3 is reported for this substance? HP2-(EEAAKK)2-MEA4: hair-binding domain, SEQ ID NO: 76 (PSAQSQLPDKHSGLHERAPQRYGPEEAAKKEEAAKKPAHINKTNPHQGNHHSEKTQRQGS)
# output 330

# input Which Phage Titer (%) relative to the activity of HP2-TonB-Gray3 is reported for this substance? Gray1-(KP)8-Gray1: hair-binding domain, SEQ ID NO: 77 (PSGMPAMHWIHPFAGPKPKPKPKPKPKPKPKPPAGMPAMHWIHPFAGS)
# output 1
